# System: TK-10
# assay.notes: NCI tumour cell line growth inhibition, 48 h
Calls of active or inactive are those of the source. Cut-off read from the data, not from the text of the source: active = GI50 up to about 1.1 µM and inactive = higher. Where a SMILES comes first, the peptide text is derived from it. The star is where a group is joined. Boc = CC(C)(C)OC(=O)*; OSu = O=C1CCC(=O)N1O*
Reply using exactly one outcome from active, inactive

Q. Please let me know the test result on file for C/C(CC(=O)Nc1cccc(Cl)c1C)=N\NC(=O)c1ccncc1 .
A. inactive

Q. Ok, now O=C(OCc1ccccc1)N1CCN(C(=O)OCc2ccccc2)CCN(C(=O)OCc2ccccc2)CCN(C(=O)OCc2ccccc2)CCN(C(=O)OCc2ccccc2)CC1
A. inactive

Q. Now this one: COc1cc2c(c(OC)c1OC)-c1ccc(SC)c(=O)cc1[C@@H](NC(=O)c1cccc([N+](=O)[O-])c1)CC2
A. active

Q. Repeat for the following molecule: CCOC(=O)c1cc(-c2ccc(OC)cc2)c([N+](=O)[O-])[nH]1
A. inactive

Q. Also C#CCC(N)(CO)C(=O)O (stereo not drawn) ?
A. inactive

Q. And what about the molecule Nc1nc2ncc(SCc3ccc(C(=O)NC(CCC(=O)O)C(=O)O)cc3)cc2c(=O)[nH]1 (stereo not drawn) ?
A. inactive

Q. Then C=C1C[C@]23CC[C@@H]4C(CO)(CO)CC(=O)C[C@]4(C)[C@@H]2C(O)C[C@H]1C3 (stereo partly drawn) ?
A. inactive

Q. N#C/C(=C/c1cccc2ccccc12)C(=O)c1ccccc1 , same question.
A. inactive

Q. Next molecule: O=[N+]([O-])c1ccc(-n2nnc(C3=NCCCN3)c2-c2ccc(Cl)cc2)cc1
A. inactive

Q. How about this molecule: Cn1cc(-c2ccc(CCOC3CCCCO3)cc2)c2c(C#N)cccc21 (stereo not drawn)
A. inactive

Q. Repeat for the following molecule: O=C(Sc1sc(=S)sc1SC(=O)c1ccccc1)c1ccccc1
A. inactive

Q. What do you get for COC(=O)/C=C1\CCC(C)(C(=O)NS(=O)(=O)c2ccc(C)cc2)C1(C)C (stereo not drawn) ?
A. inactive

Q. Request: CC(NC(=O)C(NC(=O)OC(C)(C)C)C(C)C)C(=O)NCC(=O)ON1C(=O)CCC1=O (stereo not drawn) (Boc-Val-Ala-Gly-OSu; configuration not given here)
A. inactive

Q. Now the molecule COc1ccc(C(NCCNC(c2ccc(OC)c(OC)c2)c2cc3c(cc2O)OCO3)c2cc3c(cc2O)OCO3)cc1OC (stereo not drawn)
A. inactive

Q. Same question, COc1ccc(C(=O)N(C(=O)N2CCN(c3ccccc3)CC2)S(=O)(=O)c2ccccc2)cc1 this time
A. inactive

Q. Next molecule up: COC(CC1(OC)OC(=O)C=C1N)OC (stereo not drawn)
A. inactive

Q. Follow-up entry: COC(=O)C(C)(NC(=O)C(CC(=O)OC(C)(C)C)NC(=O)OC(C)(C)C)c1ccccc1 (stereo not drawn)
A. inactive

Q. What do you have for Nc1ccccc1OCc1cc(=O)c(OCc2ccccc2)co1 ?
A. inactive

Q. // query: CCOc1cc2c(cc1OC(C)=O)C(=O)CC[C@H]1C3CC[C@H](OC(C)=O)[C@@]3(C)CC[C@H]21 (stereo partly drawn)
A. inactive

Q. Next molecule up: CC(C(=O)OCc1ccccc1)(c1ccco1)N1C(=O)OC(c2ccccc2)C1c1ccccc1 (stereo not drawn)
A. inactive

Q. Field entry: Cc1ccc(C(=O)N/N=C(\N=N\c2ccc([N+](=O)[O-])cc2)c2ccc(N(CCC#N)CCC#N)cc2C)cc1
A. inactive

Q. Same thing, different molecule: OC(c1ccccc1)c1c(-c2ccccc2)oc(-c2ccccc2)c1C(O)c1ccccc1 (stereo not drawn)
A. inactive

Q. Another molecule to look at: CN(C=O)/C=C/c1cc(O)ccc1O
A. inactive
